system: MS2 coat protein; test: apparent KD of MS2 coat protein; designed switch direction (-1 OFF switch, 1 ON switch): -1; higher = weaker reporter binding; details: input ligand: FMN 200 uM
I'd be grateful if you could share measured apparent KD of MS2 coat protein for these entries.
Express it in nM; write the number only.

Measured apparent KD of MS2 coat protein of GAUCACUGAGGAUAUACACAGAUACAAAGUAUCUGAUUGUGACAUGAGGAUCACCCAUGUAGAAGGCAGAGGUC [Omei Ex2 B6] (Eterna round: R97, puzzle: Exclusion 2) : 179

Measured apparent KD of MS2 coat protein of GGUUAUUGCAAGGAUAUGCUUUUUUUUGAAAUUGCAGAAGGUGCAACAUGAGGAUCACCCAUGUUGGAUGGGUU [JR_E6_Sub018] (Eterna round: R96, puzzle: Exclusion 6) : 252

Measured apparent KD of MS2 coat protein of CGUGUACGAGGAUAUAGAUUAGAUGACAUGAGGAUCACCCAUGUGAUCAAUCUAUUUAGUUUAGAAGGUGUACAUG [JR_Ex5_Sub051] (Eterna round: R97, puzzle: Exclusion 5) : 16.1

###

system: MS2 coat protein; assay: apparent KD of MS2 coat protein; higher = weaker reporter binding; conditions: Eterna round: R107; input ligand: theophylline 2 mM
I'd be grateful if you could share measured apparent KD of MS2 coat protein for these entries.
Express it in nM; write the number only.

Record for GUUGGACUUUCGGCCGCCACUGAGAGAGUCGUGUGAACAUGAGGAUCACCCAUGUAAUAUAUAUACAGGACCGGGAGGGUUGUAA [4.N] under target or system MS2 coat protein: apparent KD of MS2 coat protein reported as 19.7

Record for CUACAUUUGUAGAAACCGGUCAACAAUAAUCGAGGACCGGUACGGCCGCCACUCGUAUAAUUUAUUACAUGAGGAUCACCCAUGU [Tryptophan A 2] under target or system MS2 coat protein: apparent KD of MS2 coat protein reported as 15.4

Record for GGGACACCGAGAAGGAGCGCAUCCAAACCACACAUGAGGAUCACCCAUGUAUAAAUAUGCAUGCAGGUAGGUCGCUCGGCGUCUC [Orordionbi] under target or system MS2 coat protein: apparent KD of MS2 coat protein reported as 134

###

I'd be grateful if you could share measured apparent KD of MS2 coat protein for these entries.
test system: MS2 coat protein; assay: apparent KD of MS2 coat protein; designed switch direction (-1 OFF switch, 1 ON switch): -1; higher = weaker reporter binding; details: input ligand: FMN 200 uM

Record for GGCAUGCAAGGAUAUACUUACGGUGGUGUUCGAAGCUUUCUACUUGAGGAUCACCCAAGUAGAAGGUGCAUGCC [jl-ex2.4.74 ViennaUCT mod] (Eterna round: R97, puzzle: Exclusion 2) under target or system MS2 coat protein: apparent KD of MS2 coat protein reported as 18.7 nM

Record for UUAUCUACUGAGGAUAUUAUAUUACCCGACUGAUAAGAAGGCAGUACAUGAGGAUCACCCAUGUGGGUAGCCAU [Polaris11] (Eterna round: R97, puzzle: Exclusion 6) under target or system MS2 coat protein: apparent KD of MS2 coat protein reported as 23.2 nM

Record for AAUGAGCGAGGAUAUGCAACUGUAUGACCUACGUGUGCCAGACAUGAGGAUCACCCAUGUAGAAGGUGCUUUCC [Israte] (Eterna round: R96, puzzle: Exclusion 2) under target or system MS2 coat protein: apparent KD of MS2 coat protein reported as 59.9 nM

Record for CGCCUGGGAGGAUAUCCAAUAUAUGACAUGAGGAUCACCCAUGUUUCCACUCGUACCUCCGGAGAAGGCCCGGCGC [Ex5 #30] (Eterna round: R97, puzzle: Exclusion 5) under target or system MS2 coat protein: apparent KD of MS2 coat protein reported as 23.1 nM

Record for CUGUGCUGACGGAGAUCCAACAUGAGGAUCACCCAUGUCUCAAAAGCUUUUUGCUCGUCUUAUCCUCCUCAGUACAC [Mat - Sensor, turn-off var - Eli Mod - D56] (Eterna round: R97, puzzle: Sensor, turn-off variant 1) under target or system MS2 coat protein: apparent KD of MS2 coat protein reported as 17.7 nM

###

I'd be grateful if you could share measured apparent KD of K4 kissing-loop reporter for these entries.
tested on: K4 kissing-loop RNA reporter; assay: apparent KD of K4 kissing-loop reporter; higher = weaker reporter binding; conditions: Eterna round: R107; input ligand: FMN 200 uM;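 also: bound reporter read as fluorescence of individual clusters on recovered sequencing chips by microscopy, with normalized cluster intensities fitted with a binding model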
Express it in nM; write the number only.

Measured apparent KD of K4 kissing-loop reporter of AUAAACUUGCAGUGAUGUUGCAAGUGAGACUAGGAUAUCAGGAAGCUGAGAAGGAGUCAUCUCCUUCAGACAUCACUAUGAAGGA [whbob_SS_FMNA__2th179] : 334

Measured apparent KD of K4 kissing-loop reporter of UCCACGCUUAGAGGAUAUCGGAUUAGAGUGAUGUUCUAAAGAAGCCCAGUGAUGUUGGAUGGUAUACGAGAAGGCUGAGGCGUGG [Same State FMN B GF 3] : 229

Measured apparent KD of K4 kissing-loop reporter of UUUAUUAAGACGGCCGCCACUGAUUCAUAGUGAUGUUAUGAUAUAAUUUUAGUGAUUUUGAUUAGCAGGACCGGGUCAAUUAUUA [JR_ExcTryptoB_Sub016] : 221

Measured apparent KD of K4 kissing-loop reporter of CCAUCGCUAUUCGAUACCAGUCUUUUUUAUUUAUAAAAUCUGCAAAGGAGUGAUGUUCCAGACCCUUGGCAGCGAAUAGUGAUGG [Theophylline B K4 3] : 401

Measured apparent KD of K4 kissing-loop reporter of CGCCGGAAGGCGAGCGCUCCCACUCCGGAAGGAGCGCCCGAAAGGGCAGGUAGGUCGCCGGAGUGAUGUUCCGGUGGAGGGCUCG [#2 Exclusion - Arginine A Attempt #29 (Inspired by Omei)] : 125

Measured apparent KD of K4 kissing-loop reporter of CCUAUCUCAUACGAUACCAGUCUACGAUAUUUUAUCGUUGCCAACACCGAGUGAUGUUCGGACCCUUGGCAGCGUAUGGGAUAGG [#03 K4 Theophylline B Exclusion] : 159

Measured apparent KD of K4 kissing-loop reporter of GCAUCCAUGGCAGGAUAUAGGUUCGUGGAGUGAUGUUCCAUAACCCGAGUGAUGUUCGUUAUCCACCUAGAAGGGCCAUGGAUGC [whbob_Ex_FMNB__2th211] : 212

Measured apparent KD of K4 kissing-loop reporter of CGUUUAUAGCAGGAUACCAGUACCCAUAAAGUACGUUAAUAGUAGAGUGAUGUUCUGAAGUACCCUUGGCAGCUUCCGGUAAGUG [#25 K4 Theophylline B Exclusion] : 163

Measured apparent KD of K4 kissing-loop reporter of AGAGUUAUGCGAGGAUAUGCGGUUAGUACUCAAAGAGUACUAACGGCAGAGUGAUGUUCUGUGAAAGCAGAAGGUGCAUAACUCA [Omei KL FMN B SS B v9] : 274

Measured apparent KD of K4 kissing-loop reporter of AAUUGAGUGACGGCCGCCACUAGAGUGAUUUUUUUGUUUGAGUGAUGUUUUGAUGUUUGAUGUUGUAGGACCGGGUUGAGUGAUG [vvrvmullin] : 377

Measured apparent KD of K4 kissing-loop reporter of UAAGCUCUGACGGCCGCCACUGCACGUGAUCCAGUAGUGGCUAACAUGAGUGAUGUUCAUGUAAGCAGGACCGGGUCAGAGCUAA [KL-XTryp-B13 #analogue] : 103

###

I'd be grateful if you could share measured apparent KD of MS2 coat protein for these entries.
tested on: MS2 coat protein; assay: apparent KD of MS2 coat protein; designed switch direction (-1 OFF switch, 1 ON switch): -1; higher = weaker reporter binding; settings: input ligand: none
Number first, unit second.

Measured apparent KD of MS2 coat protein of UGAUCUAGCGGAGGAUAUACAUGAGGAUCACCCAUGUAGAUAACAUGACCGUAGUCGUGUAUCGUGUAGAAGGCCGCUAGAUCU [JL ENG2 3.67] (Eterna round: R96, puzzle: Exclusion NG 2) : 12.6 nM

Measured apparent KD of MS2 coat protein of UUUGUUUAUGUAGGAUAUGCCUGGCGUGCCUUCGCAGAAGGACAUGAGGAUCACCCAUGUAUUGCGGUCUGCGUUCAGAUCGCA [salish99_ExNG1_r4_031] (Eterna round: R96, puzzle: Exclusion NG 1) : 42.5 nM

Measured apparent KD of MS2 coat protein of CCCGUGUGAGGAUAUACUCUAAGCAAUGUCAGUUGCUACAGGUAGAAGGCACAUGAGGAUCACCCAUGUCCCGG [EX4 C.24] (Eterna round: R97, puzzle: Exclusion 4) : 241 nM

Measured apparent KD of MS2 coat protein of UAUUUAGCAAGCAGAUCCCACAUGAGGAUCACCCAUGUUCUCUGAAAGUACAGAAUUACUGUACAUGCUCGUCUUAU [Winner reversed engineered 33] (Eterna round: R97, puzzle: Sensor, turn-off variant 1) : 130 nM

Measured apparent KD of MS2 coat protein of AUUUUGUCAGGAUAUUGUUAGUUUAGUUGUUUGUAUUAGUUCGAGAAGGGACAUGAGGAUCACCCAUGUGAUUU [Ex4 #74] (Eterna round: R97, puzzle: Exclusion 4) : 114 nM
